Origin of the recorded values: ChEMBL document CHEMBL1201862

# System: SW-620
# assay_notes: NCI tumour cell line growth inhibition, 48 h
Active and inactive are the calls of the source. Rule as the data show it: active = GI50 up to about 1.1 µM and inactive = higher.
Would you mind answering with one of these outcomes? True (active), False (inactive)

Q: Which outcome was entered for the compound CCN(CC)CCN(C)CC(C)(C)C(=O)/C=C/c1ccccc1 in this test?
Ans: False

Q: What call does the record list for Nc1ccc(-c2nc3cc(F)ccc3s2)cc1I ?
Ans: False

Q: What was the test verdict on CN(C)/C=C/c1c2c(nc3ccccc13)C(=O)c1cccnc1C2=O ?
Ans: True

Q: Please indicate how the test categorized Cc1cc(=O)[nH]c2cc(NC(=O)C(C)NC(=O)C(C)NC(=O)C(C)NC(=O)OC(C)(C)C)ccc12 (stereo unspecified) .
Ans: False

Q: Recorded test call requested for CN(C)CCS/C(=N\c1ccccc1)N1C=COC=C1
Ans: False

Q: Could you check what this test reported for O=c1cc(O)c2c(O)cc(O)cc2o1 ?
Ans: False

Q: Please let me know the test result on file for Nc1ncnc2c1ncn2C1OC(CO)C(O)C1NS(=O)(=O)c1ccccc1 (stereo unspecified) .
Ans: False

Q: Could you kindly confirm the outcome this assay logged for O=C1C(Cl)=C(NCCc2ccc(O)cc2)C(=O)c2c(O)ccc(O)c21 ?
Ans: False

====

# Test system: NCI-H23
# assay_notes: NCI tumour cell line growth inhibition, 48 h
Activity calls are given as the source filed them. No stated cut-off is given here; in the data, active = GI50 up to about 1.1 µM and inactive = higher.
Catalogue of GI50 readings, one per entry.

Use the examples below as a reference point.
* CC(C)(C)OC(=O)NC(Cc1ccc(O)cn1)C(=O)O (stereo unspecified) | > 100 µM (inactive)
* C=C(COC(C)=O)CC(/C=C(\C)CC/C=C(\C)CO)OC(C)=O (stereo unspecified) | > 100 µM (inactive)
* CCN(CC)CCN(C)CC(C)(C)C(=O)/C=C/c1ccccc1 | 12.6 µM (inactive)
* CCOc1cc2c(cc1OC)c[n+](C)c1c3cc(OC)c(OC)cc3ccc21 | > 93.5 µM (inactive)
* CC(C)CCC1(CCN)C(=O)NC(=O)NC1=O | > 100 µM (inactive)

Notebook: CC1(C)C(CC(=O)O)CCCC1CC(=O)O (stereo unspecified) , GI50 read as > 100 µM (inactive)

Query NS(=O)(=O)c1ccc(/N=N/c2ccc(O)cc2)cc1 yields GI50 of 55.6 µM (inactive)

Entry COC1CC(OC2C(C)OC(OC3C(C)OC(OC4C(C)OC(O[C@H]5CC[C@@]6(C)C(=CC[C@]7(O)[C@@H]6C[C@@H](OC(=O)/C=C(\C)C(C)C)[C@@]6(C)[C@]7(O)CC[C@@]6(O)C(C)=O)C5)CC4OC)CC3OC)CC2OC)OC(C)C1O (stereo partly specified) ; GI50 = > 12.5 µM (inactive)

Measured GI50 of O=C(O)c1cc2c(cc1CC(Cc1ccc3c(c1)CCCC3)C(=O)O)CCCC2 (stereo unspecified) : > 100 µM (inactive)

// sample N#Cc1c2nc3ccccc3nc2n2ccc3ccccc3c12 , its GI50 was 68.4 µM (inactive)

Just so you know, measured GI50 for CCc1ccccc1/N=N/C(=O)NNc1ccccc1CC came out at 19.9 µM (inactive)

GI50 recorded for this compound, Cc1cc(C)nc(NS(=O)(=O)c2ccc(NC(=O)c3ccc(Cl)c4c(Nc5ccc(S(=O)(=O)N=C(N)N)cc5)c5ccccc5nc34)cc2)n1 , is 3.91 µM (inactive)

CC(=O)c1c(=O)n(-c2ccc(C)cc2)c(O)c2c(N)n[nH]c12 has a reported GI50 of > 100 µM (inactive)
